# IC50 per entry
# system_under_test: Nav 1.7 (Homo sapiens (Human))
# Sequence (Q15858 whole entry): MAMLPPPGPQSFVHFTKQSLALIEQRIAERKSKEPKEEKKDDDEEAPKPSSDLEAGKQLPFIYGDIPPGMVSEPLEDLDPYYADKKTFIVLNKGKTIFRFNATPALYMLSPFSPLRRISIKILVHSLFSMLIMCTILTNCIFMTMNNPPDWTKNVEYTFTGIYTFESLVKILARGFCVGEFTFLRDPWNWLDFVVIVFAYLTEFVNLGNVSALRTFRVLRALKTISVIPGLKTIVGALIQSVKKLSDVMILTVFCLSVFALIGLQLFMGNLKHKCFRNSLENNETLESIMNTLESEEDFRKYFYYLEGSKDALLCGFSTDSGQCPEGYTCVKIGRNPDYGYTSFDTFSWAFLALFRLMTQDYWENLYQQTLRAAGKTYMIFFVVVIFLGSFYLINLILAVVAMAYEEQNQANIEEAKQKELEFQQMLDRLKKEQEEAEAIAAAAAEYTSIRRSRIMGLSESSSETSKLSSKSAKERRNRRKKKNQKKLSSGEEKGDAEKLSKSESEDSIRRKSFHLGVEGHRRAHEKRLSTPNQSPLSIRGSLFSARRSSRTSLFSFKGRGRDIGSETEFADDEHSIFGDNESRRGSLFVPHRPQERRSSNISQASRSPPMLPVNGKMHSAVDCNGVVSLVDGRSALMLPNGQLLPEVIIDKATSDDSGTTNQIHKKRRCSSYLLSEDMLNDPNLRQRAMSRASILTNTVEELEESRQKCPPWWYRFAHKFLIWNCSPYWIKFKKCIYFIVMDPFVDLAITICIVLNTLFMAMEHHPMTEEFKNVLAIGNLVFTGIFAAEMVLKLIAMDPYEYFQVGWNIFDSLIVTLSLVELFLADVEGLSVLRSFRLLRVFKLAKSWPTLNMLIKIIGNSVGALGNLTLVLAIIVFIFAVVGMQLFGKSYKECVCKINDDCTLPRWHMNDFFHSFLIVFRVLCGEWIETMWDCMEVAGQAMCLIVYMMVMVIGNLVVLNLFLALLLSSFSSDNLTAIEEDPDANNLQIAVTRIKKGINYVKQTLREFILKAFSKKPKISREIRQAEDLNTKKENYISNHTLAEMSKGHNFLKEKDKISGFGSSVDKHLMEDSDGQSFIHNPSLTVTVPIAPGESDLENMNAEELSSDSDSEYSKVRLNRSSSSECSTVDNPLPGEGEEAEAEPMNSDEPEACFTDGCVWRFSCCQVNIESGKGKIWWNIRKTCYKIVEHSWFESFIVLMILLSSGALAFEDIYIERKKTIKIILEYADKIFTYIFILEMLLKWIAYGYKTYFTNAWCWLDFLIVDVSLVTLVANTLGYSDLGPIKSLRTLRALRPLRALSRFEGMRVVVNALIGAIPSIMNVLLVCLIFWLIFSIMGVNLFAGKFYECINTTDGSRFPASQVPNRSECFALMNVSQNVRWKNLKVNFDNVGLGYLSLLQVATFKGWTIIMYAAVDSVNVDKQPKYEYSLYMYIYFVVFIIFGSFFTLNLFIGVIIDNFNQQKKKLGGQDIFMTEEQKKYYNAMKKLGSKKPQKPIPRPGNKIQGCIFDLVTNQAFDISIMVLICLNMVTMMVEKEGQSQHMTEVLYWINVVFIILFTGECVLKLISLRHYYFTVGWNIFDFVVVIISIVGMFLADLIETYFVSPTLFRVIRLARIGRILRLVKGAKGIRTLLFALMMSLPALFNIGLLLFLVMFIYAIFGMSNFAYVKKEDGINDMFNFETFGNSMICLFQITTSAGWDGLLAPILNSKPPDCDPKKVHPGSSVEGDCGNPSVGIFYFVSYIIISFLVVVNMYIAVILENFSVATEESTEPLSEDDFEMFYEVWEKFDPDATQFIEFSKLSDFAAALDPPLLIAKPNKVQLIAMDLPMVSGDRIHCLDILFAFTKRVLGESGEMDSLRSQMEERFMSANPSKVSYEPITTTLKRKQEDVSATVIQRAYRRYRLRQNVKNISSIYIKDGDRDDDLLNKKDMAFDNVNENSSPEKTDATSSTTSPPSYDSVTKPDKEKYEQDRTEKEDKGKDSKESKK
# protocol_text: Nav 1.7 in vitro PX assay (PatchXpress whole cell voltage clamp)
# Type: cell-based
# experimental_context: 293 cells, human Nav1.7, partially inactivated state; read-out: Nav1.7 PX IC50 IP
Where a name gives a salt, the structure may show the parent alone.

{"columns": ["compound", "IC50 / nM"],
 "data": [
  ["COc1cc(-c2ccnc(F)c2)ccc1-c1nccc2cc(S(=O)(=O)Nc3ccncn3)ccc12 [Example 474]", 2610],
  ["O=S(=O)(Nc1nccs1)c1ccc2c(N3CCC[C@H]3c3ccccc3)nccc2c1 [Example 239]", 4590],
  ["COc1cc(Cl)ccc1-c1ncnc2cc(S(=O)(=O)Nc3nccs3)ccc12 [Example 267]", 300],
  ["COc1cc(-c2cnn(C)c2)ccc1-c1nccc2cc(S(=O)(=O)Nc3nccs3)ccc12 [Example 203]", 3290],
  ["COc1cc(C(F)F)c(OC)cc1-c1nccc2cc(S(=O)(=O)Nc3nccs3)ccc12 [Example 452]", 284],
  ["COc1cc(C(F)(F)F)ccc1-c1nccc2cc(S(=O)(=O)Nc3ncccn3)ccc12 [Example 188]", 3540],
  ["COc1cc(-c2cc(F)cc(F)c2)ccc1-c1ncnc2cc(S(=O)(=O)Nc3nncs3)ccc12 [Example 531]", 231],
  ["COc1cc(-c2cccc(F)c2)c(Cl)cc1-c1nccc2cc(S(=O)(=O)Nc3ncns3)ccc12 [Example 331]", 23],
  ["COc1cc(C#N)ccc1-c1nncc2cc(S(=O)(=O)Nc3nccs3)ccc12 [Example 251]", 1990],
  ["COc1ccc(-c2cccc(F)c2)cc1-c1ccnc2cc(S(=O)(=O)Nc3ccncn3)ccc12 [Example 321]", 251],
  ["COc1cc(C(F)(F)F)ccc1-c1cncc2cc(S(=O)(=O)Nc3nccs3)ccc12 [Example 288]", 600],
  ["COc1cc(C#N)ccc1-c1cncc2cc(S(=O)(=O)Nc3ccncn3)ccc12 [Example 286, HYDROCHLORIDE]", 4220],
  ["COc1cc(F)ccc1-c1ncc(O)c2cc(S(=O)(=O)Nc3nccs3)ccc12 [Example 233, 2,2,2-TRIFLUOROACETATE]", 510],
  ["O=S(=O)(Nc1nccs1)c1ccc2c(-c3ccc(C(F)(F)F)cc3-n3ccnc3)nccc2c1 [Example 229]", 420],
  ["COc1cc(C#N)ccc1-c1ncc(F)c2cc(S(=O)(=O)Nc3ccncn3)ccc12 [Example 218]", 4630],
  ["O=S(=O)(Nc1ncc(F)s1)c1ccc2c(-c3ccc(C(F)(F)F)cc3C3=CCNCC3)cccc2c1 [Example 108]", 210],
  ["COc1cc(-c2ccc(C)c(F)c2)ccc1-c1nccc2cc(S(=O)(=O)Nc3ccncn3)ccc12 [Example 471]", 56]
]}

###

# system_under_test: Nav 1.7 (Homo sapiens (Human))
# protocol_text: Nav 1.7 in vitro PX assay (PatchXpress whole cell voltage clamp)
# Format: cell-based
# experimental_context: 293 cells, human Nav1.7, partially inactivated state; read-out: Nav1.7 PX IC50 IP
pIC50: −log10 of the molar value.

{"columns": ["smiles_string", "pIC50"],
 "data": [
  ["COc1nc(-c2cccc(F)c2)ccc1-c1nccc2cc(S(=O)(=O)Nc3ccncn3)ccc12", 6.27],
  ["COc1nc(Cl)ccc1-c1nccc2cc(S(=O)(=O)Nc3nccs3)ccc12", 6.01],
  ["O=S(=O)(Nc1ccncn1)c1ccc2c(-c3ccc(C(F)(F)F)cc3-n3ccnc3)cccc2c1", 6.06],
  ["COc1cc(F)ccc1-c1nccc2cc(S(=O)(=O)Nc3ccncn3)ccc12", 5.37]
]}
